# applied conditions: crystals obtained by the crystallization process of the respective example (pH adjustment, coagulant, pH readjustment, cooling rate vary)
Can you tell me BD (tapped bulk density) of the obtained L-methionine crystals for the items I'm about to list?
Number only, in g/L; omit the unit.

Query string: Fill in BD (tapped bulk density) of the obtained L-methionine crystals for record CSCC[C@H](N)C(=O)O [Comparative Example 6, L-methionine, reference compound]
Result string: 450

Query string: Fill in BD (tapped bulk density) of the obtained L-methionine crystals for record CSCC[C@H](N)C(=O)O [Example 12, L-methionine]
Result string: 560

Query string: Fill in BD (tapped bulk density) of the obtained L-methionine crystals for record CSCC[C@H](N)C(=O)O [Example 21, L-methionine]
Result string: 800

Query string: Fill in BD (tapped bulk density) of the obtained L-methionine crystals for record CSCC[C@H](N)C(=O)O [Example 13, L-methionine]
Result string: 530

Query string: Fill in BD (tapped bulk density) of the obtained L-methionine crystals for record CSCC[C@H](N)C(=O)O [Comparative Example 13, L-methionine, reference compound]
Result string: 400

Query string: Fill in BD (tapped bulk density) of the obtained L-methionine crystals for record CSCC[C@H](N)C(=O)O [Example 11, L-methionine]
Result string: 550

Query string: Fill in BD (tapped bulk density) of the obtained L-methionine crystals for record CSCC[C@H](N)C(=O)O [Example 14, L-methionine]
Result string: 600

Query string: Fill in BD (tapped bulk density) of the obtained L-methionine crystals for record CSCC[C@H](N)C(=O)O [Example 15, L-methionine]
Result string: 500

Query string: Fill in BD (tapped bulk density) of the obtained L-methionine crystals for record CSCC[C@H](N)C(=O)O [Comparative Example 3, L-methionine, reference compound]
Result string: 500

Query string: Fill in BD (tapped bulk density) of the obtained L-methionine crystals for record CSCC[C@H](N)C(=O)O [Comparative Example 9, L-methionine, reference compound]
Result string: 460

* * *

# applied conditions: crystals obtained by the crystallization process of the respective example (pH adjustment, coagulant, pH readjustment, cooling rate vary)
readout: BD (tapped bulk density) of the obtained L-methionine crystals (g/L)
Number only, in g/L; omit the unit.

Query string: Fill in BD (tapped bulk density) of the obtained L-methionine crystals for record CSCC[C@H](N)C(=O)O [Example 4, L-methionine]
Result string: 590

Query string: Fill in BD (tapped bulk density) of the obtained L-methionine crystals for record CSCC[C@H](N)C(=O)O [Comparative Example 8, L-methionine, reference compound]
Result string: 450

Query string: Fill in BD (tapped bulk density) of the obtained L-methionine crystals for record CSCC[C@H](N)C(=O)O [Example 8, L-methionine]
Result string: 570

Query string: Fill in BD (tapped bulk density) of the obtained L-methionine crystals for record CSCC[C@H](N)C(=O)O [Example 18, L-methionine]
Result string: 730

Query string: Fill in BD (tapped bulk density) of the obtained L-methionine crystals for record CSCC[C@H](N)C(=O)O [Example 20, L-methionine]
Result string: 760

Query string: Fill in BD (tapped bulk density) of the obtained L-methionine crystals for record CSCC[C@H](N)C(=O)O [Example 3, L-methionine]
Result string: 610

Query string: Fill in BD (tapped bulk density) of the obtained L-methionine crystals for record CSCC[C@H](N)C(=O)O [Example 5, L-methionine]
Result string: 590

Query string: Fill in BD (tapped bulk density) of the obtained L-methionine crystals for record CSCC[C@H](N)C(=O)O [Example 2, L-methionine]
Result string: 350

Query string: Fill in BD (tapped bulk density) of the obtained L-methionine crystals for record CSCC[C@H](N)C(=O)O [Example 1, L-methionine]
Result string: 370

Query string: Fill in BD (tapped bulk density) of the obtained L-methionine crystals for record CSCC[C@H](N)C(=O)O [Example 17, L-methionine]
Result string: 690

Query string: Fill in BD (tapped bulk density) of the obtained L-methionine crystals for record CSCC[C@H](N)C(=O)O [Example 16, L-methionine]
Result string: 480

Query string: Fill in BD (tapped bulk density) of the obtained L-methionine crystals for record CSCC[C@H](N)C(=O)O [Example 19, L-methionine]
Result string: 750

Query string: Fill in BD (tapped bulk density) of the obtained L-methionine crystals for record CSCC[C@H](N)C(=O)O [Comparative Example 12, L-methionine, reference compound]
Result string: 660

Query string: Fill in BD (tapped bulk density) of the obtained L-methionine crystals for record CSCC[C@H](N)C(=O)O [Comparative Example 10, L-methionine, reference compound]
Result string: 630

Query string: Fill in BD (tapped bulk density) of the obtained L-methionine crystals for record CSCC[C@H](N)C(=O)O [Example 9, L-methionine]
Result string: 560

Query string: Fill in BD (tapped bulk density) of the obtained L-methionine crystals for record CSCC[C@H](N)C(=O)O [Comparative Example 2, L-methionine, reference compound]
Result string: 520

Query string: Fill in BD (tapped bulk density) of the obtained L-methionine crystals for record CSCC[C@H](N)C(=O)O [Comparative Example 4, L-methionine, reference compound]
Result string: 500

Query string: Fill in BD (tapped bulk density) of the obtained L-methionine crystals for record CSCC[C@H](N)C(=O)O [Comparative Example 5, L-methionine, reference compound]
Result string: 490

Query string: Fill in BD (tapped bulk density) of the obtained L-methionine crystals for record CSCC[C@H](N)C(=O)O [Example 7, L-methionine]
Result string: 570
